Readings of cell viability for the listed molecules
tested on: NOMO1; experiment: cell viability relative to DMSO control; higher = less cytotoxic; conditions: RPMI 5 mM glucose + 10% dialyzed FBS; 48 h; 1.71 µM
Give the quantity in %, number only.

What value of cell viability has been recorded for this entry: Cc1ncc([N+](=O)[O-])n1CC(C)O (stereo not drawn)
110

What value of cell viability has been recorded for this entry: Cc1noc(-c2ccc(CSCCC(=O)O)cc2)c1NC(=O)OC(C)c1ccccc1Cl (stereo not drawn)
95.8

What value of cell viability has been recorded for this entry: CCN(c1ccccc1)c1cc(NC)[n+](C)c(C)n1
113

What value of cell viability has been recorded for this entry: CCN1CCCC1CNC(=O)c1cc([S+](N)(=O)[O-])ccc1OC (stereo not drawn)
134

---

tested on: SEM cells; assay: cell viability relative to DMSO control; higher = less cytotoxic; settings: RPMI 5 mM glucose + 10% FBS; 48 h; 1.71 µM
quantityName: cell viability (%)
Give the quantity in %, number only.

Below, 6 molecules whose answers are already recorded.
molecule: COc1cc(C(=O)NS(=O)(=O)c2ccccc2C)ccc1Cc1cn(C)c2ccc(NC(=O)OC3CCCC3)cc12
testedOn: SEM cells
endpointUnit: %
cell viability: 70.5
--
molecule: CNC(=O)CN1CCC(Oc2cc3c(Nc4cccc(Cl)c4F)ncnc3cc2OC)CC1
testedOn: SEM cells
endpointUnit: %
cell viability: 124
--
molecule: Cn1cc(C[C@@H](N)C(=O)O)c2ccccc21
testedOn: SEM cells
endpointUnit: %
cell viability: 97.9
--
molecule: COc1ncc(-c2ccc3c(Nc4cc(Oc5cc(F)cc(F)c5)cc(C(=O)O)c4)c([S+](=O)([O-])NC4CC4)cnc3c2)c(OC)n1
testedOn: SEM cells
endpointUnit: %
cell viability: 100
--
molecule: COc1cccc2c1[C@]13CCN(CC4CC4)[C@H](C2)[C@]1(OC)CCC(=O)C3
testedOn: SEM cells
endpointUnit: %
cell viability: 113
--
molecule: COC1=CC=C(C=C1O)C/2=C/C(=O)C3=C(O2)C=C(O[C@@H]4O[C@H](CO[C@@H]5O[C@@H](C)[C@H](O)[C@@H](O)[C@H]5O)[C@@H](O)[C@H](O)[C@H]4O)C=C3O
testedOn: SEM cells
endpointUnit: %
cell viability: 106

What value of cell viability has been recorded for this entry: Cc1noc(-c2ccc(CSCCC(=O)O)cc2)c1NC(=O)OC(C)c1ccccc1Cl (stereo unspecified)
70.3

What value of cell viability has been recorded for this entry: Cc1onc(-c2ccccc2)c1C(=O)N[C@@H]1C(=O)N2[C@@H]1SC(C)(C)[C@@H]2C(=O)[O-].[Na+]
86.4

What value of cell viability has been recorded for this entry: NC/1=N/C(=O)N(/C=N1)[C@@H]2O[C@H](CO)[C@@H](O)[C@H]2O
94.8

What value of cell viability has been recorded for this entry: CCOc1cc(CC(=O)N[C@@H](CC(C)C)c2ccccc2N2CCCCC2)ccc1C(=O)O
134

---

system: SEM cells; assay: cell viability relative to DMSO control; higher = less cytotoxic; conditions: HPLM + 10% dialyzed FBS; 48 h; 0.0211 µM
Readings of cell viability for the listed compounds
Give the quantity in %, number only.

What value of cell viability has been recorded for this entry: CC(C)(O)/C=C\C(=O)[C@](C)(O)[C@H]1[C@H](O)C[C@]2(C)[C@@H]3CC=C4[C@@H](C=C(O)C(=O)C4(C)C)[C@]3(C)C(=O)C[C@@]12C
100

What value of cell viability has been recorded for this entry: O=C(O)CC/C=C\CC[C@@H]1[C@@H](N2CCCCC2)[C@@H](O)C[C@@H]1OCc1ccc(-c2ccccc2)cc1
136
